# PROTOCOL NOTES: Drug elimination in human urine
# Type: ADME, tissue-based
# SETUP CONDITIONS: read-out: Drug excretion
READOUT KIND: dose excreted (%)
The response must be a number in % with no trailing unit.

Specify dose excreted for COc1ccc(-n2nc(C(N)=O)c3c2C(=O)N(c2ccc(N4CCCCC4=O)cc2)CC3)cc1 [APIXABAN] and stop.
27

###

# PROTOCOL NOTES: Oral bioavailability in human
# Type: ADME, organism-based
# SETUP CONDITIONS: in vivo
READOUT KIND: bioavailability
Could you give the number and then its unit, please?

Return value of bioavailability for input COc1ccc(-n2nc(C(N)=O)c3c2C(=O)N(c2ccc(N4CCCCC4=O)cc2)CC3)cc1 , no commentary.
49%
